test: Plasma clearance and plasma metabolite analysis; type: in vivo, rat; conditions: Wistar, rat, in vivo, iv, metabolite-corrected plasma, intravenous injection, rats; read-out: Elimination half-life in plasma
reported metric: half-life (min)
Could you give me the number in min? Just the number is fine.

Q: Entry CCCN(CCC)C(=O)Cc1c(-c2ccc(O[11CH3])cc2)nc2c(Cl)cc(Cl)cn12 [[^11C]CB184] has what half-life?
Ans: 44

====

test: Plasma clearance and plasma metabolite analysis; format: in vivo, rat; conditions: Wistar, rat, in vivo, iv, metabolite-corrected plasma, intravenous injection, rats; read-out: Distribution half-life in plasma (converted)
reported metric: half-life
# output: numeric value plus its unit

Q: Entry CCCN(CCC)C(=O)Cc1c(-c2ccc(O[11CH3])cc2)nc2c(Cl)cc(Cl)cn12 [[^11C]CB184] has what half-life?
Ans: 17 s
